# System: Staphylococcus aureus
# method.summary: Antibacterial activity against methicillin-resistant Staphylococcus aureus ATCC 43300 assessed as inhibition of bacterial growth at pH 7.4 incubated for 24 hrs by NCCLS protocol based method
# Assay type: functional
property.label: MIC (µM)
Use µM as the unit, but write only the number.

Kindly note: Staphylococcus aureus, "H-FLFHLIPHVIHGLVHAIHH-NH2" , MIC value reported: 4

Kindly note: Staphylococcus aureus, "H-FLFKLIPKVIKGLVHAIHH-NH2" , MIC value reported: 2

Kindly note: Staphylococcus aureus, "H-FLHHLIPHVIHGLVHAIHH-NH2" , MIC value reported: 4

Kindly note: Staphylococcus aureus, "H-FLFHLIPHVIHGLVKAIRK-NH2" , MIC value reported: 2

Kindly note: Staphylococcus aureus, "H-FLFKLIPKVIKGLVKAIRK-NH2" , MIC value reported: 2

Kindly note: Staphylococcus aureus, "H-HLHHLIPHVIHGLVHAIHH-NH2" , MIC value reported: 16
